- Target or system: Beta-3 adrenergic receptor (Homo sapiens, UniProt P13945)
- Sequence (P13945 whole entry): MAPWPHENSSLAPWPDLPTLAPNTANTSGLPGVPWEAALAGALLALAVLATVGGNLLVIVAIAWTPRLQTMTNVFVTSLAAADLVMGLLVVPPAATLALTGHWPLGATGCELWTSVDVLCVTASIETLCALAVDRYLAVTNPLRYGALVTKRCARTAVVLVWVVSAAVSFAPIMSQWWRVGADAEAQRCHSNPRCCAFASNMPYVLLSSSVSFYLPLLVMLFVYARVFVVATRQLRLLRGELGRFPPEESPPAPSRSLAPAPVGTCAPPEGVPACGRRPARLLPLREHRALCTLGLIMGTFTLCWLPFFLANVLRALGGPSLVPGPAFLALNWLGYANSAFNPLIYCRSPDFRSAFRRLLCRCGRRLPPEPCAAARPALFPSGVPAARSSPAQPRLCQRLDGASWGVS
- Assay procedure: Antagonist activity at human beta3 adrenergic receptor expressed in HEK293 cells co-expressing Galpha16 assessed as inhibition of isoproterenol-induced intercellular calcium mobilization pre-incubated for 10 mins before isoproterenol addition by Fluo-4AM dye-based fluorescence assay
- Setup conditions: read-out: EC50 (the source's name)
pIC50: −log10 of the molar value.
Value kind: pIC50

Smiles notation | Value kind | Number
CCCCCC(=O)Nc1ccccc1NC(=O)Nc1ccc(CCNC[C@H](O)COc2cccc3[nH]ccc23)cc1 | pIC50 | 8.68
CC(C)NC(=O)Nc1ccc(CCNC[C@H](O)COc2cccc3[nH]ccc23)cc1 | pIC50 | 8.99
CC(=O)NCc1cccc(OC[C@@H](O)CNCCc2ccc(NC(=O)c3ccccc3)cc2)c1 | pIC50 | 8.11
CCc1ccccc1OC[C@@H](O)CNCCc1ccc(NC(=O)c2ccccc2)cc1 | pIC50 | 8.11
CC(=O)NCc1cccc(OC[C@@H](O)CNCCc2ccc(NS(=O)(=O)Nc3ccccc3)cc2)c1 | pIC50 | 8.47
O=C(Nc1ccccc1)Nc1ccc(CCNC[C@H](O)COc2cccc3[nH]ccc23)cc1 | pIC50 | 9.29
COC(=O)Nc1ccc(NC(=O)Nc2ccc(CCNC[C@H](O)COc3cccc4[nH]ccc34)cc2)cc1 | pIC50 | 8.85
O=C(NCCc1ccccc1)Nc1ccc(CCNC[C@H](O)COc2cccc3[nH]ccc23)cc1 | pIC50 | 8.67
COC(=O)Nc1ccccc1NC(=O)Nc1ccc(CCNC[C@H](O)COc2cccc3[nH]ccc23)cc1 | pIC50 | 8.58
CCc1ccccc1OC[C@@H](O)CNCCc1ccc(NC(=O)Nc2ccccc2)cc1 | pIC50 | 7.26
O=C(Nc1ccc(CCNC[C@H](O)COc2cccc3[nH]ccc23)cc1)Nc1cccc(F)c1 | pIC50 | 8.53
COC(=O)Nc1cccc(NC(=O)Nc2ccc(CCNC[C@H](O)COc3cccc4[nH]ccc34)cc2)c1 | pIC50 | 8.78
COc1ccccc1NC(=O)Nc1ccc(CCNC[C@H](O)COc2cccc3[nH]ccc23)cc1 | pIC50 | 8.07
O=S(=O)(Nc1ccc(CCNC[C@H](O)COc2cccc3[nH]ccc23)cc1)c1ccccc1 | pIC50 | 8.68
CCCCCC(=O)Nc1cccc(NC(=O)Nc2ccc(CCNC[C@H](O)COc3cccc4[nH]ccc34)cc2)c1 | pIC50 | 8.75
CC(=O)NCc1cccc(OC[C@@H](O)CNCCc2ccc(NC(=O)Nc3ccccc3)cc2)c1 | pIC50 | 8.33
CCc1ccccc1OC[C@@H](O)CNCCc1ccc(NS(=O)(=O)c2ccccc2)cc1 | pIC50 | 7.95
O=C(Nc1ccc(F)cc1)Nc1ccc(CCNC[C@H](O)COc2cccc3[nH]ccc23)cc1 | pIC50 | 8.60
COc1cccc(NC(=O)Nc2ccc(CCNC[C@H](O)COc3cccc4[nH]ccc34)cc2)c1 | pIC50 | 8.34
O=C(Nc1ccc(CCNC[C@H](O)COc2cccc3[nH]ccc23)cc1)NC1CCCCC1 | pIC50 | 8.54
O=C(Cc1ccccc1)Nc1ccc(CCNC[C@H](O)COc2cccc3[nH]ccc23)cc1 | pIC50 | 8.96
CC(=O)NCc1cccc(OC[C@@H](O)CNCCc2ccc(NC(=O)Cc3ccccc3)cc2)c1 | pIC50 | 8.34
O=C(Nc1ccc(CCNC[C@H](O)COc2cccc3[nH]ccc23)cc1)c1ccccc1 | pIC50 | 8.85
CCc1ccccc1OC[C@@H](O)CNCCc1ccc(NC(=O)Cc2ccccc2)cc1 | pIC50 | 8.06
CCCCCC(=O)Nc1ccc(NC(=O)Nc2ccc(CCNC[C@H](O)COc3cccc4[nH]ccc34)cc2)cc1 | pIC50 | 7.98
COc1ccc(NC(=O)Nc2ccc(CCNC[C@H](O)COc3cccc4[nH]ccc34)cc2)cc1 | pIC50 | 8.83
O=C(Nc1ccc(CCNC[C@H](O)COc2cccc3[nH]ccc23)cc1)Nc1ccccc1F | pIC50 | 8.45
